- Tested on: Fer (mouse);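 also: 11-residue human phosphosite peptides and single-mutation variants displayed on the E. coli surface, counted by deep sequencing, each peptide's frequency after selection divided by its frequency in the unselected input library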;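 also: frequency after pTyr selection over input frequency; kinase dosed for 20-30% of maximal phosphorylation in three min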
- ASSAY DETAILS: phosphorylation enrichment, bacterial display (enrichment ratio); higher = better substrate or ligand; peptides without Tyr show the background
Decide using phosphorylation enrichment: a value greater than or equal to 0.6 is YES, a smaller one is NO.

Worked examples, 2 sequences total:
SGVSYYINLCQ [IGF2R_Y2025_N2020S] = YES
AAGGRYDGLVG [HARS1_Y363] = NO

Check if phosphorylation enrichment >= 0.6 (inclusive). Item: EKESCYILHSS [PATJ_Y783_E779K] YES

Check if phosphorylation enrichment >= 0.6 (inclusive). Item: GTYVIYVRFSG [FLNB_Y1687_G1691S] YES

Check if phosphorylation enrichment >= 0.6 (inclusive). Item: RMGNLYDIDEN [GRIN2A_Y1246_D1251N] YES

Check if phosphorylation enrichment >= 0.6 (inclusive). Item: YEEDSYVKRSQ [RET_Y905] NO

Check if phosphorylation enrichment >= 0.6 (inclusive). Item: KLADVYQAELR [GFAP_Y116] NO
